# target_system: recombinant human NKp30 extracellular domain, his-tagged (human) (UniProt O14931)
# Sequence (O14931 19-135): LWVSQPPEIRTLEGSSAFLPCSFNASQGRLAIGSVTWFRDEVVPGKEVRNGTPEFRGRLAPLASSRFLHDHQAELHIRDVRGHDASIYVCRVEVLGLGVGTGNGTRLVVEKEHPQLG
# assay_summary: BLI, SEEDbody on anti-human Fc sensors, soluble NKp30, 1:1 fit
property_label: koff (s⁻¹)

binder: VHH3 SEEDbody eff- (bispecific antibody, part only; not given: silenced SEED Fc and cetuximab Fab, V domains shown, not shown: another chain or arm of the molecule; a dimerising Fc or GST; small tags and cut ends) VHH: DVQLQESGGGLVQPGESLKLSCLVSGVTYHFYDITWFRQAPGLEREGVSCISYASGTTKFADSVKGRFTISRDNAKNAVYLEMNSLKPEDTAVYFCATQGSGSCSDFMSAGSVLSWGQGTQVTVSS
data_value: 0.00017
//
binder: VHH4 SEEDbody eff- (bispecific antibody, part only; not given: silenced SEED Fc and cetuximab Fab, V domains shown, not shown: another chain or arm of the molecule; a dimerising Fc or GST; small tags and cut ends) VHH: DVQLQESGGGLVQPGESLRLSCLVSGVTYHFYDITWFRQAPGLEREGVSCISYASGSTKFADSVKGRFTISRDNAKNAVYLQMNSLKPEDTAVYFCAMQGSGSCSDFMSADSVLSWGQGTQVTVSS
data_value: 0.000218
//
binder: VHH12 SEEDbody eff- (bispecific antibody, part only; not given: silenced SEED Fc and cetuximab Fab, V domains shown, not shown: another chain or arm of the molecule; a dimerising Fc or GST; small tags and cut ends) VHH: DVQLQESGGGLVQAGGSLRLSCAASGRTFSSDFMGWFRQAPGKEREFVAAIHWSGGSRSYADSVKGRFTISRDNAKDTVYLLMNSLKLEDTAVYYCAAEIRWQTTGWANLGSWGQGTQVTVSS
data_value: 0.000898
//
binder: VHH8 SEEDbody eff- (bispecific antibody, part only; not given: silenced SEED Fc and cetuximab Fab, V domains shown, not shown: another chain or arm of the molecule; a dimerising Fc or GST; small tags and cut ends) VHH: DVQLQESGGGLAQPGGSLRLSCAASGFTFSSYDMGWYRQAPGKECELVAAIFSADGSTIYADSVKGRFTISSDNAKNTVFLQMNSLKPEDTAVYYCNKAPPFTTIQPMCVMIDTQLGAWGQGTQVTVSS
data_value: 0.000134
//
binder: VHH2 SEEDbody eff- (bispecific antibody, part only; not given: silenced SEED Fc and cetuximab Fab, V domains shown, not shown: another chain or arm of the molecule; a dimerising Fc or GST; small tags and cut ends) VHH: DVQLQESGGGLVQAGGSLRLSCAVSGQTWTNYHIGWFRQAPGKARESVASIEWGGRGTYATDSVKGRFTISRDNAKNTVYLQMNSLKPEDTAVYYCAAQSSSRSPLESNYDYWGQGTQVTVSS
data_value: 0.000646
//
binder: VHH6 SEEDbody eff- (bispecific antibody, part only; not given: silenced SEED Fc and cetuximab Fab, V domains shown, not shown: another chain or arm of the molecule; a dimerising Fc or GST; small tags and cut ends) VHH: DVQLQESGGGLVQTGGSLRLSCAASGLPFSKYAIAWFRQAPGKESEFLVVVSWSGDKFYQDNMKGRCTISRDNAKNTAYLQINSLQPEDTAVYYCAASGSYPVTDRYFYNFWGQGTQVTVSS
data_value: 0.129
//
binder: VHH9 SEEDbody eff- (bispecific antibody, part only; not given: silenced SEED Fc and cetuximab Fab, V domains shown, not shown: another chain or arm of the molecule; a dimerising Fc or GST) VHH: DVQLQESGGGLVQAGGSLRLSCAASGRGGASYAMGWFRQAPGKEREFVAAISWTGDTTYNVDSVKGRFTISSDNAKNPVYLDMSSLKPEDTAVYYCAAAHWTRVVAKGAMADEKKYEYWGQGTQVTVSS
data_value: 0.00187
//
binder: VHH13 SEEDbody eff- (bispecific antibody, part only; not given: silenced SEED Fc and cetuximab Fab, V domains shown, not shown: another chain or arm of the molecule; a dimerising Fc or GST; small tags and cut ends) VHH: DVQLQESGGGLAQPGGPLRLSCAASGRTFTSDFMGWFRQAPGKEREFVAAIHWSGGSRSYADSVKGRFTISRDNAKDTVYLLMNSLKLEDTAVYYCAAEIRWQTAGWVNLGSWGQGTQVTVSS
data_value: 0.000162
